assay: anti-His antibody binders, primary screen, artefact control for SMM control protein annotation, biochemical, small-molecule microarray, 635 nm fluorescence (AID 1128); details: anti-His Alexa647 antibody binding, higher = more signal;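 note: score merges feature fluorescence with signal-to-noise for each printed compound spot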
Would you kindly list composite z-score for each of these molecules?
Output spec: single numeric token, no unit.

Quick one: composite z-score for COC(=O)[C@@]1(CCC(=O)OC(C)(C)C)N=C(c2ccc(OCCCO)cc2)O[C@H]1c1ccccc1CN=[N+]=[N-] ?
0.656

Which composite z-score reading was recorded for the molecule C=CCC(OC(C)=O)[C@@H]1[C@@H](N(Cc2ccc(-c3ccccc3)cc2)C(=O)c2cccc3ccccc23)c2cc(OCCCO)ccc2N1C(=O)c1ccc2ccccc2c1 (some centres undefined) ?
-0.173

For the molecule CN(C)CCCNC(=O)[C@@H]1c2ccccc2C(=O)N(C2Cc3ccccc3C2)[C@H]1c1ccc(CO)cc1 , what composite z-score is on record?
0.0265

Which composite z-score is listed for CC(C)[C@@H](C(=O)O)n1cc(-c2ccccc2)nn1 ?
0.808
